Entries and their IC50 (nM) Ca2+ assay (method 2)
# tested.system: human CXCR4 (human, UniProt P61073 1-352)
# Sequence (P61073 whole entry): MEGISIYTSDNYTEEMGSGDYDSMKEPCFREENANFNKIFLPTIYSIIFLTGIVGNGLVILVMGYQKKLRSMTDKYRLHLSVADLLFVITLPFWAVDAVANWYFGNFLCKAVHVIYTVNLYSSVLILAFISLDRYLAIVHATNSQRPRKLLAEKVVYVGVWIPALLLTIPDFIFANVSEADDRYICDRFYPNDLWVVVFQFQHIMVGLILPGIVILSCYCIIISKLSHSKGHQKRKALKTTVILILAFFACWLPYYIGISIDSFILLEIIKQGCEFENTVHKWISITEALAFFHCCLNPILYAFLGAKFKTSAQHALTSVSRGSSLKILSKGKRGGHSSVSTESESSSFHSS
# measurement.protocol: cell-based or functional assay
Bridges are numbered along the chain shown (N, C = ends). Primed or numbered codes have the meaning given here. [ ]: non-standard residue; d: D form. 2Nal = N[C@@H](Cc1ccc2ccccc2c1)C(=O)O; Cit = NC(=O)NCCC[C@H](N)C(=O)O; Pip′ = not defined here
readout.kind: IC50 (nM) Ca2+ assay (method 2)

binder	result
cyclo(YRDCRG[dP]RR[2Nal]CYQK[dP]P) (disulfide 4-11; SMILES N=C(N)NCCC[C@@H]1NC(=O)[C@@H]2CSSC[C@H](NC(=O)[C@H](Cc3ccc4ccccc4c3)NC(=O)[C@H](CCCNC(=N)N)NC(=O)[C@H](CCCNC(=N)N)NC(=O)[C@H]3CCCN3C(=O)CNC1=O)C(=O)N[C@@H](Cc1ccc(O)cc1)C(=O)N[C@@H](CCC(N)=O)C(=O)N[C@@H](CCCCN)C(=O)N1CCC[C@@H]1C(=O)N1CCC[C@H]1C(=O)N[C@@H](Cc1ccc(O)cc1)C(=O)N[C@@H](CCCNC(=N)N)C(=O)N[C@@H](CC(=O)O)C(=O)N2) [Example 93]	4.3
cyclo(YRQCRG[dP]RR[2Nal]CY[Cit]K[dP]P) (disulfide 4-11; SMILES N=C(N)NCCC[C@@H]1NC(=O)[C@@H]2CSSC[C@H](NC(=O)[C@H](Cc3ccc4ccccc4c3)NC(=O)[C@H](CCCNC(=N)N)NC(=O)[C@H](CCCNC(=N)N)NC(=O)[C@H]3CCCN3C(=O)CNC1=O)C(=O)N[C@@H](Cc1ccc(O)cc1)C(=O)N[C@@H](CCCNC(N)=O)C(=O)N[C@@H](CCCCN)C(=O)N1CCC[C@@H]1C(=O)N1CCC[C@H]1C(=O)N[C@@H](Cc1ccc(O)cc1)C(=O)N[C@@H](CCCNC(=N)N)C(=O)N[C@@H](CCC(N)=O)C(=O)N2) [Example 130]	4.1
cyclo(YRYCRG[dP]RR[2Nal]CYQK[dP]P) (disulfide 4-11; SMILES N=C(N)NCCC[C@@H]1NC(=O)[C@@H]2CSSC[C@H](NC(=O)[C@H](Cc3ccc4ccccc4c3)NC(=O)[C@H](CCCNC(=N)N)NC(=O)[C@H](CCCNC(=N)N)NC(=O)[C@H]3CCCN3C(=O)CNC1=O)C(=O)N[C@@H](Cc1ccc(O)cc1)C(=O)N[C@@H](CCC(N)=O)C(=O)N[C@@H](CCCCN)C(=O)N1CCC[C@@H]1C(=O)N1CCC[C@H]1C(=O)N[C@@H](Cc1ccc(O)cc1)C(=O)N[C@@H](CCCNC(=N)N)C(=O)N[C@@H](Cc1ccc(O)cc1)C(=O)N2) [Example 72]	3.9
cyclo(YR[Cit]CRG[dP]RR[2Nal]CYLK[dP]P) (disulfide 4-11; SMILES CC(C)C[C@@H]1NC(=O)[C@H](Cc2ccc(O)cc2)NC(=O)[C@@H]2CSSC[C@H](NC(=O)[C@H](CCCNC(N)=O)NC(=O)[C@H](CCCNC(=N)N)NC(=O)[C@H](Cc3ccc(O)cc3)NC(=O)[C@@H]3CCCN3C(=O)[C@H]3CCCN3C(=O)[C@H](CCCCN)NC1=O)C(=O)N[C@@H](CCCNC(=N)N)C(=O)NCC(=O)N1CCC[C@@H]1C(=O)N[C@@H](CCCNC(=N)N)C(=O)N[C@@H](CCCNC(=N)N)C(=O)N[C@@H](Cc1ccc3ccccc3c1)C(=O)N2) [Example 82]	4.8
cyclo(YR[Cit]CRG[dP]RR[2Nal]CYTK[dP]P) (disulfide 4-11; SMILES C[C@@H](O)[C@@H]1NC(=O)[C@H](Cc2ccc(O)cc2)NC(=O)[C@@H]2CSSC[C@H](NC(=O)[C@H](CCCNC(N)=O)NC(=O)[C@H](CCCNC(=N)N)NC(=O)[C@H](Cc3ccc(O)cc3)NC(=O)[C@@H]3CCCN3C(=O)[C@H]3CCCN3C(=O)[C@H](CCCCN)NC1=O)C(=O)N[C@@H](CCCNC(=N)N)C(=O)NCC(=O)N1CCC[C@@H]1C(=O)N[C@@H](CCCNC(=N)N)C(=O)N[C@@H](CCCNC(=N)N)C(=O)N[C@@H](Cc1ccc3ccccc3c1)C(=O)N2) [Example 132]	1.9
cyclo(YR[Cit]CRG[dP]TR[2Nal]CYQK[dP]P) (disulfide 4-11; SMILES C[C@@H](O)[C@@H]1NC(=O)[C@H]2CCCN2C(=O)CNC(=O)[C@H](CCCNC(=N)N)NC(=O)[C@@H]2CSSC[C@H](NC(=O)[C@H](Cc3ccc4ccccc4c3)NC(=O)[C@H](CCCNC(=N)N)NC1=O)C(=O)N[C@@H](Cc1ccc(O)cc1)C(=O)N[C@@H](CCC(N)=O)C(=O)N[C@@H](CCCCN)C(=O)N1CCC[C@@H]1C(=O)N1CCC[C@H]1C(=O)N[C@@H](Cc1ccc(O)cc1)C(=O)N[C@@H](CCCNC(=N)N)C(=O)N[C@@H](CCCNC(N)=O)C(=O)N2) [Example 56]	0.74
cyclo([Pip′]RYCYQK[dP]PYR[Cit]CRG[dP]) (disulfide 4-13) [Example 150]	1.4
cyclo(YR[Cit]CRG[dP]RRWCY[Cit]K[dP]P) (disulfide 4-11; SMILES N=C(N)NCCC[C@@H]1NC(=O)[C@@H]2CSSC[C@H](NC(=O)[C@H](Cc3c[nH]c4ccccc34)NC(=O)[C@H](CCCNC(=N)N)NC(=O)[C@H](CCCNC(=N)N)NC(=O)[C@H]3CCCN3C(=O)CNC1=O)C(=O)N[C@@H](Cc1ccc(O)cc1)C(=O)N[C@@H](CCCNC(N)=O)C(=O)N[C@@H](CCCCN)C(=O)N1CCC[C@@H]1C(=O)N1CCC[C@H]1C(=O)N[C@@H](Cc1ccc(O)cc1)C(=O)N[C@@H](CCCNC(=N)N)C(=O)N[C@@H](CCCNC(N)=O)C(=O)N2) [Example 128]	4.5
